Where do the numbers come from? From ChEMBL document CHEMBL4043287.

- targetSystem: Adenosine receptor A2a (Homo sapiens)
- measurementNotes: Agonist activity at human A2A-AR expressed in FlpIn-CHO cells assessed as inhibition of forskolin-stimulated cAMP accumulation preincubated for 40 mins followed by forskolin addition measured after 30 mins by Alphascreen assay
attributeMeasured: pEC50
Field pEC50 (float): negative decimal logarithm of the concentration in molar.

I would be grateful if you could share the reported pEC50 for `Nc1sc(-c2ccc(C(=O)NCCCCCNc3ncnc4c3ncn4[C@@H]3O[C@H](CO)[C@@H](O)[C@H]3O)cc2)c(-c2cccc(C(F)(F)F)c2)c1C(=O)c1ccccc1` .
5.44

====

- targetSystem: Adenosine receptor A2a (Homo sapiens, UniProt P29274)
- Sequence (P29274 whole entry): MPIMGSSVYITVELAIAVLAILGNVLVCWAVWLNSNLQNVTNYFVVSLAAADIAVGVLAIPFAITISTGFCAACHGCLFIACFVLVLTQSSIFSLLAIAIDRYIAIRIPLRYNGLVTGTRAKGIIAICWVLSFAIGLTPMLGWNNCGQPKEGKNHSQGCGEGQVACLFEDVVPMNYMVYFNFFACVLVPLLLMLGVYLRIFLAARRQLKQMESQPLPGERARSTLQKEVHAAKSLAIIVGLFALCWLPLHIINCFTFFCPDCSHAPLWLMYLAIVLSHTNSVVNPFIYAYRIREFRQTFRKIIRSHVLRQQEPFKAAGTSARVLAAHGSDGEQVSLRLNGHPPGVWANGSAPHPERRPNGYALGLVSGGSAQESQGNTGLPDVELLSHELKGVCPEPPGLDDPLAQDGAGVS
- measurementNotes: Agonist activity at human A2A-AR expressed in FlpIn-CHO cells assessed as inhibition of forskolin-stimulated cAMP accumulation preincubated for 40 mins followed by forskolin addition measured after 30 mins by Alphascreen assay
attributeMeasured: log10(EC50) (log10 of the value in nM)
Friendly reminder: values = log10 of EC50, unit nM.

Consider the following illustrative entries.
smilesCode | log10(EC50)
CCNC(=O)[C@H]1O[C@@H](n2cnc3c(NCCCCCCNC(=O)c4ccc(-c5sc(N)c(C(=O)c6ccccc6)c5-c5cccc(C(F)(F)F)c5)cc4)ncnc32)[C@H](O)[C@@H]1O | 1.75
Nc1cc(-c2cccc(C(F)(F)F)c2)c(-c2ccc(C(=O)NCCCCCCNc3ncnc4c3ncn4[C@@H]3O[C@H](CO)[C@@H](O)[C@H]3O)cc2)s1 | 3.43
Nc1ccc(-c2cccc(C(=O)NCCCCCCNc3ncnc4c3ncn4[C@@H]3O[C@H](CO)[C@@H](O)[C@H]3O)c2)s1 | 3.03
O=C(NCCCCCCNc1ncnc2c1ncn2[C@@H]1O[C@H](CO)[C@@H](O)[C@H]1O)c1ccc(-c2scc(C(=O)c3ccccc3)c2-c2cccc(C(F)(F)F)c2)cc1 | 3.46

I would be grateful if you could share the reported log10(EC50) for `Nc1sc(-c2cccc(C(=O)NCCCCCCNc3ncnc4c3ncn4[C@@H]3O[C@H](CO)[C@@H](O)[C@H]3O)c2)c(-c2cccc(C(F)(F)F)c2)c1C(=O)c1ccccc1` .
2.17
